biological target: hTREM2 (Homo sapiens); assay: TREM2 activity by cellular Syk phosphorylation (AlphaScreen/AlphaLISA) in TREM2/DAP12-HEK cells, used for Examples 1-305; format: cell-based; parameters: expressed in transfected cells; conditions: HEK293 Cells
Sequence (Q9NZC2 19-230): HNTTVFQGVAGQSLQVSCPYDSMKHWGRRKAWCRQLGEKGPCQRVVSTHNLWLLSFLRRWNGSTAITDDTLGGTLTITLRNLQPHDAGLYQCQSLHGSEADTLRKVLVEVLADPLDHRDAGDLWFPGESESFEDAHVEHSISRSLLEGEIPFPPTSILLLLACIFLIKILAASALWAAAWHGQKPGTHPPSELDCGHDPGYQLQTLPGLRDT
Sequence (O43914 22-113 partner): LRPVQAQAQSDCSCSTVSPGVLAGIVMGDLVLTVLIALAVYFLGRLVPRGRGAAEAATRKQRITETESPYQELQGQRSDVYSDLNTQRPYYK
List of EC50 values.

>  <Compound>
Cc1nc2nc(N3CCO[C@@H](c4cnn(C)c4)C3)nc(N3CCC(C)(C)C3)c2nc1C

>  <EC50>
500 to 3000 nM

$$$$
>  <Compound>
Cc1cc([C@H]2CN(c3nc(-c4ccc(Cl)cc4F)c4cc(C)c(C)nc4n3)CCO2)cnn1 (single isomer, unassigned)

>  <EC50>
≤ 50 nM

$$$$
>  <Compound>
Cc1nc2nc(N3CCO[C@@H](c4cnn(C)c4)C3)nc(-c3cc(F)c(F)c(F)c3)c2nc1C

>  <EC50>
≤ 50 nM

$$$$
>  <Compound>
Cc1cc([C@H]2CN(c3nc4nc(C)c(C)cc4c([C@H]4C[C@H](C(F)(F)F)C4)n3)CCO2)ccn1

>  <EC50>
≤ 50 nM

$$$$
>  <Compound>
Cc1nc2nc([C@H]3CCO[C@@H](c4cnn(C5CC5)c4)C3)nc(-c3ccc(C(F)(F)F)nc3)c2nc1C

>  <EC50>
50 to 500 nM

$$$$
>  <Compound>
Cc1nc2nc([C@H]3CCO[C@@H](c4cnn(C)c4)C3)nc([C@H]3C[C@H](C(F)(F)F)C3)c2nc1C (single isomer, unassigned)

>  <EC50>
50 to 500 nM

$$$$
>  <Compound>
Cc1cc([C@H]2C[C@H](c3nc(-c4ccc(Cl)cc4F)c4ccc(C)nc4n3)CCO2)ccn1 (single isomer, unassigned)

>  <EC50>
50 to 500 nM

$$$$
>  <Compound>
Cc1cnc2c(-c3ccc(Cl)cc3F)nc(N3CCO[C@H](c4cnc(C)nc4)C3)nc2n1

>  <EC50>
500 to 3000 nM

$$$$
>  <Compound>
Cc1nc2cc(N3CCO[C@@H](c4cnn(C)c4)C3)nc([C@H]3C[C@H](C(F)(F)F)C3)c2nc1C

>  <EC50>
50 to 500 nM

$$$$
>  <Compound>
Cc1nc2nc(N3CCO[C@@H](c4cnn(C5CC5)c4)C3)nc(C3CCC(F)(F)CC3)c2nc1C

>  <EC50>
≤ 50 nM

$$$$
>  <Compound>
Cc1ccc(-c2nc([C@H]3CCO[C@@H](c4ccnc(C)c4)C3)nc3nc(C)c(C)cc23)c(F)c1 (single isomer, unassigned)

>  <EC50>
≤ 50 nM

$$$$
>  <Compound>
Cc1nc2cc([C@H]3CCO[C@@H](c4cnn(C5CC5)c4)C3)nc(-c3ccc(Cl)cc3F)c2nc1C

>  <EC50>
3000 to 100000 nM

$$$$
>  <Compound>
Cc1nc2nc(N3CCO[C@@H](c4cnn(C)c4)C3)nc(N3CC(C(F)(F)F)C3)c2nc1C

>  <EC50>
500 to 3000 nM

$$$$
>  <Compound>
Cc1nc2nc(N3CCO[C@H]([C@@H]4CCOC4)C3)nc(-c3ccc(F)cc3F)c2nc1C (single isomer, unassigned) [Example 35]

>  <EC50>
50 to 500 nM

$$$$
>  <Compound>
Cc1nc2nc(N3CCO[C@@H](c4cnn(C)c4)C3)nc(-c3ccc(F)c(F)c3)c2nc1C

>  <EC50>
≤ 50 nM

$$$$
>  <Compound>
Cc1cc([C@H]2CN(c3cc(-c4ccc(F)cc4F)c4cnc(C)nc4c3)CCO2)ccn1

>  <EC50>
50 to 500 nM

$$$$
>  <Compound>
Cc1nc2nc(N3CCO[C@@H](c4cnn(C)c4)C3)nc(C3CCC4(CC3)CC4)c2nc1C

>  <EC50>
≤ 50 nM

$$$$
>  <Compound>
CN1Cc2c(-c3ccc(Cl)cc3F)cc(N3CCO[C@H](c4cnn(C)c4)C3)nc2C1=O

>  <EC50>
500 to 3000 nM

$$$$
>  <Compound>
Cc1ccc(-c2cc([C@H]3CCO[C@@H](c4cnn(C)c4)C3)nc3nc(C)c(C)nc23)c(F)c1 (single isomer, unassigned)

>  <EC50>
≤ 50 nM

$$$$
>  <Compound>
Cc1cc2c(-c3ccc(Cl)cc3F)nc([C@H]3C[C@@H](C)O[C@@H](c4cnn(C)c4)C3)nc2nc1C (single isomer, unassigned)

>  <EC50>
≤ 50 nM

$$$$
>  <Compound>
Cc1nc2nc(N3CCO[C@@H]([C@H]4CCOC4)C3)nc(-c3ccc(F)cc3F)c2nc1C

>  <EC50>
500 to 3000 nM

$$$$
>  <Compound>
Cc1nc2nc(N3CCO[C@@H](c4cnn(C)c4)C3)nc(N3CC(C(F)F)C3)c2nc1C

>  <EC50>
3000 to 100000 nM

$$$$
>  <Compound>
Cc1cnc2c(-c3ccc(Cl)cc3F)nc(N3CCO[C@@H](c4cnn(C)c4)C3)nc2n1

>  <EC50>
≤ 50 nM

$$$$
>  <Compound>
Cc1ccc2c(C34CC(C(F)(F)F)(C3)C4)nc(N3CCO[C@@H](c4cnn(C)c4)C3)nc2n1

>  <EC50>
50 to 500 nM

$$$$
>  <Compound>
Cc1cc2c(-c3ccc(Cl)cc3F)nc(N3CCO[C@@H](c4cnn(C)c4)C3)nc2nc1C

>  <EC50>
≤ 50 nM

$$$$
>  <Compound>
Cc1cnc2c(-c3ccc(F)cc3F)nc(N3CCO[C@H]([C@@H]4CCOC4)C3)nc2n1

>  <EC50>
3000 to 100000 nM

$$$$
>  <Compound>
Cc1cc([C@@H]2C[C@H](c3nc(-c4ccc(Cl)cc4F)c4nc(C)c(C)nc4n3)CCO2)ccn1 (single isomer, unassigned)

>  <EC50>
50 to 500 nM

$$$$
>  <Compound>
Cc1cnc2c(-c3ccc(F)cc3F)nc(N3CCO[C@@H](c4cnn(C5CC5)c4)C3)nc2n1

>  <EC50>
≤ 50 nM

$$$$
